- assayed_system: HLA-A*24:02 (human)
- run_description: UV peptide exchange + HLA class I ELISA
- particulars: remark: other sources report otherwise
reported_property: exchange rate vs Pos peptide (%)
Give your result in % as a bare value.

Previously resolved entries follow.
[[record]]
binder = "LMAQRLLLR (here or on the partner: biotinylated heavy chain) [P97 9-mer peptide (FOXRED2-TXN2 fusion)]"
units_text = "%"
data_value = 0.1

[[record]]
binder = "HVPKILSGK (here or on the partner: biotinylated heavy chain) [P58 9-mer peptide (AR (Q903H))]"
units_text = "%"
data_value = 0.2

[[record]]
binder = "IVWWCPMSR (here or on the partner: biotinylated heavy chain) [P98 9-mer peptide (TP53 (R213D) frameshift)]"
units_text = "%"
data_value = -0.1

[[record]]
binder = "QLIAMDSAI (here or on the partner: biotinylated heavy chain) [P22 9-mer peptide (SLC45A3-ELK4 fusion)]"
units_text = "%"
data_value = 0

[[record]]
binder = "YLRRQKRLK (here or on the partner: biotinylated heavy chain) [P60 9-mer peptide (FOXA1.p.F266L)]"
units_text = "%"
data_value = 0.9

[[record]]
binder = "RVGNCKHLK (here or on the partner: biotinylated heavy chain) [P82 9-mer peptide (AR-V7 splice variant)]"
units_text = "%"
data_value = -0.1


# context switch: different binder, same exchange rate vs Pos peptide
Item: CYLGRQKRF (here or on the partner: biotinylated heavy chain) [P61 9-mer peptide (FOXA1.p.R261G)] | exchange rate vs Pos peptide: 90.3
